Origin of measurements: patent US7868026B2

# target_desc: CYP3A4 (Homo sapiens, UniProt P08684)
# Sequence (P08684 whole entry): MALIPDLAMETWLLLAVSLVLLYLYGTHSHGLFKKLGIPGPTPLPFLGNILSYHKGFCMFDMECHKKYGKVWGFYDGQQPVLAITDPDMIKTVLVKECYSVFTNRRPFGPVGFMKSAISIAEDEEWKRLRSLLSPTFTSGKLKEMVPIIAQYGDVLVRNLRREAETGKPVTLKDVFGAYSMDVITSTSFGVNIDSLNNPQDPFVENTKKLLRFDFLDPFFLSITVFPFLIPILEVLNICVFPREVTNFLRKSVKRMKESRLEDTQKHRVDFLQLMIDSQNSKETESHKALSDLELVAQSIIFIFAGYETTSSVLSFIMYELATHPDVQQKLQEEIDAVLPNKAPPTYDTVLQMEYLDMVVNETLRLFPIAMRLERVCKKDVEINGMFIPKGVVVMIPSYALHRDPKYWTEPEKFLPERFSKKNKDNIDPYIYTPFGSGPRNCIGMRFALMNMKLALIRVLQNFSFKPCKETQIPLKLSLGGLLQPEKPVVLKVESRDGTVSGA
# run_description: Determination of IC50 against CYP3A4 by measurement of inhibition of midazolam metabolism (human liver microsomes, 1-hydroxymidazolam by LC-MS/MS)
# Format: biochemical
# Design: 0.1 mg/mL human liver microsomes
# experimental_context: 2 μM midazolam, 0.1 mg/mL human liver microsomes
property: IC50 (nM)

Below, each entry is followed by its recorded IC50 result.
Query: Fill blank: measured IC50 of the molecule COc1cncc(NS(=O)(=O)c2ccccc2C(=O)N[C@H](CO)CC2CCCCC2)c1 [Example 190] is ____.
Result: 7

Query: Fill blank: measured IC50 of the molecule COc1cncc(NS(=O)(=O)c2ccccc2C(=O)NCc2cc(F)cc(F)c2)c1 [Example 184] is ____.
Result: 13

(a) O=C(c1ccccc1S(=O)(=O)Nc1cccnc1)N1CCCCC1 [Example 67]
(b) CCCCNC(=O)c1ccccc1S(=O)(=O)Nc1cncc(OC)c1 [Example 17]
(c) CCCN(CC1CC1)C(=O)c1ccccc1S(=O)(=O)Nc1cncc(C)c1 [Example 331]
Query: List items by IC50 in falling order. Please respond by ranking the labels in the order requested.
Result: a, b, c

###

# target_desc: CYP3A4 (Homo sapiens, UniProt P08684)
# run_description: Determination of compound Kiapp against recombinant CYP3A4 enzyme (BFC fluorescent substrate)
# Type: biochemical
# experimental_context: Super. enzyme preparation, read-out: Kiapp (BFC, Super.)
property: Ki (nM)

Query: Fill blank: measured Ki of the molecule Cc1cccc(CCNC(=O)c2ccccc2S(=O)(=O)Nc2cccnc2)c1 is ____.
Result: 9.4

(I) Cc1cncc(NS(=O)(=O)c2ccccc2C(=O)N(C)C(C)C)c1
(II) CCCCC(CO)NC(=O)c1ccccc1S(=O)(=O)Nc1cncc(OC)c1 (centres unmarked)
Query: Recorded Ki values differ for I and II ; which one is higher? Please reply using the label of the selected record.
Result: I

(P) CCOc1ccncc1NS(=O)(=O)c1ccccc1C(=O)NCCOc1ccccc1
(Q) COc1cncc(NS(=O)(=O)c2ccccc2C(=O)NCCc2ccccc2OC)c1
Query: Recorded Ki values differ for P and Q ; which one is higher? Please reply using the label of the selected record.
Result: P

###

# target_desc: CYP3A4 (Homo sapiens)
# run_description: Determination of compound Kiapp against recombinant CYP3A4 enzyme (BFC fluorescent substrate)
# Type: biochemical
# experimental_context: Baculo. enzyme preparation, read-out: Kiapp (BFC, Baculo.)
property: Ki (nM)

(a) COc1ccc(CNC(=O)c2ccccc2S(=O)(=O)Nc2cccnc2)c(OC)c1
(b) Cc1cncc(NS(=O)(=O)c2ccccc2C(=O)NCCc2ccccc2F)c1
Query: Recorded Ki values differ for a and b ; which one is higher? Please reply using the label of the selected record.
Result: a
(a: 613 nM, b: 86.8 nM)

###

# target_desc: CYP3A4 (Homo sapiens)
# run_description: Determination of compound Kiapp against recombinant CYP3A4 enzyme (BFC fluorescent substrate)
# Format: biochemical
# experimental_context: Baculo. enzyme preparation, read-out: Kiapp (BFC, Baculo.)
pKi: −log10 of the molar value.
property: pKi

Below, each entry is followed by its recorded pKi result.
Query: Fill blank: measured pKi of the molecule COc1cccc(CCNC(=O)c2ccccc2S(=O)(=O)Nc2cccnc2)c1 is ____.
Result: 6.82

Query: Fill blank: measured pKi of the molecule Cc1ccncc1NS(=O)(=O)c1ccccc1C(=O)NCCOc1ccccc1 is ____.
Result: 6.52

Query: Fill blank: measured pKi of the molecule COc1cccc(CNC(=O)c2ccccc2S(=O)(=O)Nc2cccnc2)c1 is ____.
Result: 6.49

Query: Fill blank: measured pKi of the molecule O=C(NCc1ccc2c(c1)CCO2)c1ccccc1S(=O)(=O)Nc1cccnc1 is ____.
Result: 6.13

(I) Cc1cc(CNC(=O)c2ccccc2S(=O)(=O)Nc2cnccc2C)ccc1F
(II) COc1cncc(NS(=O)(=O)c2ccccc2C(=O)NCCc2ccccc2C)c1
Query: Recorded pKi values differ for I and II ; which one is higher? Please reply using the label of the selected record.
Result: II
(II: 7.80, I: 6.80)
